test system: MDA-MB-435; experiment: NCI tumour cell line growth inhibition, 48 h
Kindly state TGI for each of the entries shown.

Tell me reported TGI for CC(=Nc1cc(Cl)cc(Cl)c1)c1ccncc1 , tested with MDA-MB-435.
> 100 µM

Tell me reported TGI for COC(=O)[C@@H]1C=C[C@H](NC(C)=O)C1 , tested with MDA-MB-435.
> 100 µM

Tell me reported TGI for Clc1ccc2c(c1)C(N1CCNCC1)=Nc1ccccc1O2 , tested with MDA-MB-435.
3.11 µM

Tell me reported TGI for COc1cc2ncnc3c2cc1OCCCCCN(C)Cc1ccc(Br)cc1N3 , tested with MDA-MB-435.
> 100 µM

Tell me reported TGI for CCOC(=O)Nc1nc2cc(OCC)ccc2s1 , tested with MDA-MB-435.
5.15 µM

Tell me reported TGI for COc1cc(/C=C2\CN(C(=O)CCN3CCC(=NO)CC3)C/C(=C\c3cc(OC)c(OC)c(OC)c3)C2=O)cc(OC)c1OC , tested with MDA-MB-435.
0.637 µM

Tell me reported TGI for O=P(O)(O)C=C=C1CCCCC1 , tested with MDA-MB-435.
> 100 µM

Tell me reported TGI for C/C=C(/C)c1cnc(CC(C)C)c(=O)[nH]1 , tested with MDA-MB-435.
> 100 µM

Tell me reported TGI for O=C(NCCCCCCO)c1cccc2cc3ccccc3nc12 , tested with MDA-MB-435.
47.3 µM

Tell me reported TGI for N#C/C(=C1/c2cc([N+](=O)[O-])ccc2-c2c1cc([N+](=O)[O-])cc2[N+](=O)[O-])N1CCCCC1 , tested with MDA-MB-435.
> 100 µM

Tell me reported TGI for Cc1ccc(/C=C2/NC(=S)SC2=O)cc1 , tested with MDA-MB-435.
> 100 µM

Tell me reported TGI for C/C(=C(/c1ccc(O)cc1)c1ccc(Cl)cc1)c1ccccc1 , tested with MDA-MB-435.
1.18 µM

Tell me reported TGI for Clc1nc2c(C#Cc3ccccc3)ncnc2n1C1CCCCO1 (stereo not given) , tested with MDA-MB-435.
94.1 µM

Tell me reported TGI for O=C(O)COc1cc(-c2ccccc2)nc2ccccc12 , tested with MDA-MB-435.
73.8 µM

Tell me reported TGI for CC(=O)NC(=O)NC1=NCCC(=O)N1CCc1c[nH]c2ccccc12 , tested with MDA-MB-435.
> 100 µM

Tell me reported TGI for C=CC(OC(C)=O)c1ccc(OC(C)=O)cc1 (stereo not given) , tested with MDA-MB-435.
11.9 µM

Tell me reported TGI for COC(=O)c1ccc(CN2C(=O)C(Cl)=C(Nc3ccc(OC)c(Cl)c3)C2=O)cc1 , tested with MDA-MB-435.
> 50 µM

Tell me reported TGI for Nc1cc2[nH]cnc2c(=O)[nH]1 , tested with MDA-MB-435.
> 300 µM

Tell me reported TGI for NNC(=O)Cn1ccnn1 , tested with MDA-MB-435.
> 100 µM

Tell me reported TGI for Cn1cc(C2=C(c3cn(C)c4cc(N)ccc34)C(=O)NC2=O)c2ccccc21 , tested with MDA-MB-435.
> 21.2 µM

Tell me reported TGI for Nc1nc(N)nc(CC(=O)O)n1 , tested with MDA-MB-435.
> 100 µM

Tell me reported TGI for CSc1nsc(S/C=C\C(=O)c2ccc(C)cc2)n1 , tested with MDA-MB-435.
45.6 µM

Tell me reported TGI for COC(=O)[C@@]1(C)CCC[C@]2(C(=O)O)C3Cc4occc4[C@H](C)[C@@H]3CCC21 (stereo not given in full) , tested with MDA-MB-435.
> 100 µM

Tell me reported TGI for CCCCCCCCCCCCCCCCCCNC(=O)OCC(CNS(=O)(=O)CCC[n+]1cccc2ccccc21)COC (stereo not given) , tested with MDA-MB-435.
4.94 µM

Tell me reported TGI for COc1cc2oc(=O)cc(C)c2c(OC)c1OC(C)=O , tested with MDA-MB-435.
> 100 µM

Tell me reported TGI for O=[N+]([O-])c1ccc2nc(/C=C(\O)c3ccc(Cl)cc3)c(/C=C(\O)c3ccc(Cl)cc3)nc2c1 , tested with MDA-MB-435.
> 100 µM

Tell me reported TGI for C/C(=N\NC(=S)N1CCN(c2ccccn2)CC1)c1nccs1 , tested with MDA-MB-435.
12.8 µM

Tell me reported TGI for CC(C)(C)C(=O)N1CCN(C=O)C1=S , tested with MDA-MB-435.
> 100 µM

Tell me reported TGI for C=CCOC1(CC=C)C(=O)OC2C(O)COC21O (stereo not given) , tested with MDA-MB-435.
> 100 µM

Tell me reported TGI for COc1ccc(NC(=O)CC(=O)N2N=C(N(c3ccccc3)c3ccccc3)CC2c2ccccc2)cc1 (stereo not given) , tested with MDA-MB-435.
> 100 µM

Tell me reported TGI for Cc1nc(Nc2nc3ccccc3[nH]2)nc(Cl)c1CCCl , tested with MDA-MB-435.
> 100 µM

Tell me reported TGI for Cc1nc2cccc(F)c2c(=O)n1-c1nnc(C(F)(F)F)s1 , tested with MDA-MB-435.
> 10 µM

Tell me reported TGI for C[C@]12CC[C@H]3[C@@H](CC[C@]4(O)C[C@@H](O)CC[C@]34CO)[C@@]1(O)CC[C@@H]2C1=CC(=O)OC1 , tested with MDA-MB-435.
9.45 µM

Tell me reported TGI for N#C/C(C(=O)Nc1ccccc1)=C(/N)N1CCCCC1 , tested with MDA-MB-435.
> 100 µM

Tell me reported TGI for CCCCN(CCCC)CCc1c(C)cc(C)c(CCN(CCCC)CCCC)c1O , tested with MDA-MB-435.
53.2 µM

Tell me reported TGI for CCOC(=O)Cc1csc(N=Nc2c(O)[nH]c3ccccc23)n1 , tested with MDA-MB-435.
> 100 µM

Tell me reported TGI for COc1cccc(C23CCCC(C2)N(C)CC3OC(=O)c2ccccc2)c1OC (stereo not given) , tested with MDA-MB-435.
38.4 µM

Tell me reported TGI for COC1(OC)C=CC(=O)C=C1 , tested with MDA-MB-435.
12.8 µM

Tell me reported TGI for CC[C@]1(O)C[C@@H]2CN(CCc3c([nH]c4ccccc34)[C@@](C(=O)OC)(c3cc4c(cc3OC)N(C)[C@H]3[C@@](O)(C(N)=O)[C@H](O)[C@]5(CC)[C@@H]6C[C@@H]6CN6CC[C@]43[C@@H]65)C2)C1 , tested with MDA-MB-435.
< 0.00333 µM

Tell me reported TGI for C[PH+](c1nc2ccccc2nc1[PH+](C)C(C)(C)C)C(C)(C)C.C[PH+](c1nc2ccccc2nc1[PH+](C)C(C)(C)C)C(C)(C)C.[Au+].[Cl-] (stereo not given) , tested with MDA-MB-435.
0.158 µM

Tell me reported TGI for COc1cc2c3c(ncc2c(OC)c1OC)-c1cc2c(cc1C3)OCO2 , tested with MDA-MB-435.
> 100 µM

Tell me reported TGI for Cc1ccc2sc3ccc(N)cc3c(=O)c2c1 , tested with MDA-MB-435.
> 100 µM

Tell me reported TGI for COc1ccc([C@@H](O)c2cc(-c3ncnc4cc(N5CCOCC5)ccc34)c(F)cc2Cl)nn1 , tested with MDA-MB-435.
37.4 µM

Tell me reported TGI for COC(=O)c1cc(C)ccc1/C=C1\Cc2c(C)cc(C)cc2C1=O , tested with MDA-MB-435.
> 100 µM

Tell me reported TGI for CC(=O)Nc1ccc(/C=C2/NC(=S)N(/C=C3\C(=O)Oc4ccccc4C3=O)C2=O)cc1 , tested with MDA-MB-435.
> 100 µM

---

test system: HCC-2998 colon; experiment: NCI tumour cell line growth inhibition, 48 h
Kindly state GI50 for each of the entries shown.

Which GI50 is listed for CCCCN(CCCC)CCc1c(C)cc(C)c(CCN(CCCC)CCCC)c1O ?
3170 nM

Which GI50 is listed for COc1cc(/C=C2\CC3C4CC=C5C[C@@H](O)CC[C@]5(C)C4CC[C@]3(C)C2=O)ccc1OCCCn1ccnc1 (stereo partly specified) ?
14800 nM

Which GI50 is listed for Oc1c(CN2CCCC2)cc(CSCc2ccccc2)c2cccnc12 ?
1390 nM

Which GI50 is listed for COc1nc(C)cc2c(=O)n(-c3ccccc3)n(CC(O)CN3CCN(c4ccc(Cl)cc4)CC3)c(=O)c12 (stereo unspecified) ?
> 50000 nM

Which GI50 is listed for COc1ccc([C@@H](O)c2cc(-c3ncnc4cc(N5CCOCC5)ccc34)c(F)cc2Cl)nn1 ?
2850 nM

Which GI50 is listed for CCC1(OC(=O)CN)C(=O)OCc2c1cc1n(c2=O)Cc2cc3cc4c(cc3nc2-1)OCO4 (stereo unspecified) ?
101 nM

Which GI50 is listed for O=C(Nc1ccc(Br)cc1)Nc1nn(C(=O)Nc2ccc(Br)cc2)c2ccccc12 ?
> 100000 nM

Which GI50 is listed for CCOC(=O)c1c2c(n(Cc3ccccc3)c1C)-c1nc(Cc3ccccc3)[nH]c1C(=O)C2=O ?
2600 nM

Which GI50 is listed for CCCCNC(=O)Oc1ccc(/C(=C(/CC)Cc2ccccc2)c2ccc(OCCN3CCCCCC3)cc2)cc1 ?
18800 nM

Which GI50 is listed for CSc1nsc(S/C=C\C(=O)c2ccc(C)cc2)n1 ?
17800 nM

Which GI50 is listed for CC[C@]1(O)C[C@@H]2CN(CCc3c([nH]c4ccccc34)[C@@](C(=O)OC)(c3cc4c(cc3OC)N(C)[C@H]3[C@@](O)(C(N)=O)[C@H](O)[C@]5(CC)[C@@H]6C[C@@H]6CN6CC[C@]43[C@@H]65)C2)C1 ?
4.13 nM

Which GI50 is listed for COC(=O)[C@H]1[C@H]2C[C@@H]3c4[nH]c5cc(OC)ccc5c4CCN3C[C@H]2C[C@@H](OC(=O)/C=C/c2cc(OC)c(OC)c(OC)c2)[C@@H]1OC ?
24200 nM

Which GI50 is listed for CCCCCCNC(=O)n1cc(F)c(=O)[nH]c1=O ?
287 nM

Which GI50 is listed for CC[C@@]12C=CCN3CC[C@]4(c5cc(NC(=O)COc6cc(OCC(=O)Nc7cc8c(cc7OC)N(C)[C@H]7[C@@](O)(C(=O)OC)[C@H](OC(C)=O)[C@]9(CC)C=CCN%10CC[C@]87[C@@H]%109)cc7oc(-c8ccccc8)cc(=O)c67)c(OC)cc5N(C)[C@@H]4[C@](O)(C(=O)OC)[C@H]1OC(C)=O)[C@H]32 ?
1890 nM

Which GI50 is listed for CC(=O)c1cccc(-c2cccc(-c3ccn(CCN4CCOCC4)n3)c2)c1 ?
> 20000 nM

Which GI50 is listed for CCN(CC)CCOc1c(OC)c(Br)cc2c(C)c(C(=O)OC)oc12 ?
2420 nM
